Attribute: amyloid nucleation score
assay_summary: amyloid nucleation score (Sup35N fusion, yeast selection) (log enrichment); library NNK2; higher = more nucleation; inactive = no reads after selection;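 also: zero at mode of non-aggregating sequences after 7 days selection at 30°C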
parameter_measured: amyloid nucleation score

sequence_data=CPSVSSRSRELSLLTDQEVI parameter_measured="amyloid nucleation score" assay_value=0.812
sequence_data=RFNTCLDS parameter_measured="amyloid nucleation score" assay_value=-0.005
sequence_data=TVSKDDMTALVSAIMASNRW parameter_measured="amyloid nucleation score" assay_value=1.06
sequence_data=NYREMLWSDIRVVS parameter_measured="amyloid nucleation score" assay_value=0.004
sequence_data=MVHTKYPLWSNSRVLWDSVT parameter_measured="amyloid nucleation score" assay_value=0.397
sequence_data=HSFIGSRIVSFGFDVRGRWA parameter_measured="amyloid nucleation score" assay_value=4.91
sequence_data=LLHYGGSFLAAKFRRMGFTM parameter_measured="amyloid nucleation score" assay_value=-0.262
sequence_data=MNGIFVNLKSKIRTFCRSVY parameter_measured="amyloid nucleation score" assay_value=2.67

* * *

Attribute: amyloid nucleation score
assay_summary: amyloid nucleation score (Sup35N fusion, yeast selection) (log enrichment); library NNK2; higher = more nucleation; inactive = no reads after selection
parameter_measured: amyloid nucleation score

sequence_data=MPSRYMIVMFNLTLPRRGVG assay_value=-0.226
sequence_data=VPRKILFCLLACCRMRQACS assay_value=0.67
sequence_data=LIYPANDANNSTR assay_value=-0.616
sequence_data=VRANLGAGFRFKSETGDAS assay_value=0.861
sequence_data=VCVQDRLRC assay_value=0.518
sequence_data=SDGLGSILIFGPPNY assay_value=-0.992
sequence_data=PGNCRSFCRS assay_value=0.695
sequence_data=DRSAIMVRCNQIFHISPIGF assay_value=6.31
sequence_data=VNGWDWQRYLRILKCFVVY assay_value=0.615
sequence_data=GCHVRSFK assay_value=0.158
sequence_data=TNTLMGPFWLSWSNVQPNRS assay_value=-0.787
sequence_data=RITIAQHTDSKGDA assay_value=-0.01
sequence_data=MTIVVSDCTSVSDVFIGLGN assay_value=2.29
sequence_data=SFWDRGFNIRQ assay_value=6.14
sequence_data=ASILMSRKTMGSNRHCSFVG assay_value=0.345
sequence_data=SVSGIGWFGGEQHAWS assay_value=-0.531
sequence_data=ARNPDFRCDSASI assay_value=-0.146
sequence_data=FEGFNAMVSGLRYSSMGCFH assay_value=0.334

* * *

assay_summary: amyloid nucleation score (Sup35N fusion, yeast selection) (log enrichment); library NNK1; higher = more nucleation; inactive = no reads after selection
parameter_measured: amyloid nucleation score

substance=HPGMTSAASVCWFHGRVLTL parameter_measured="amyloid nucleation score" assay_value=0.494
substance=RVSLSCIMKIYNFDKRVWLG parameter_measured="amyloid nucleation score" assay_value=0.521
substance=VIDYVGFRHTGGGSVGFVGG parameter_measured="amyloid nucleation score" assay_value=-0.387
substance=HSFIYYWC parameter_measured="amyloid nucleation score" assay_value=7.49
substance=SIEGRSSIQATMCSMLLNGP parameter_measured="amyloid nucleation score" assay_value=-0.197
substance=LSAKLQFCITIEYALRVTKC parameter_measured="amyloid nucleation score" assay_value=-0.106
substance=IIGSIGYVKVSCDQAVRFQL parameter_measured="amyloid nucleation score" assay_value=5.01
substance=WFYPWVLVWTLSCCVSRHKG parameter_measured="amyloid nucleation score" assay_value=4.35
substance=SGGLNFLGLPVVFF parameter_measured="amyloid nucleation score" assay_value=0.173
substance=RTSSWPTLTHEALLRSGDLC parameter_measured="amyloid nucleation score" assay_value=-0.637
substance=CLGNNSFGDLGI parameter_measured="amyloid nucleation score" assay_value=0.368
substance=DQVISNCRLNMGV parameter_measured="amyloid nucleation score" assay_value=-0.369
substance=PPHIRKAGMRTFMGGLGLRG parameter_measured="amyloid nucleation score" assay_value=0.619
substance=LYRFNF parameter_measured="amyloid nucleation score" assay_value=0.223
substance=VFMSLESFYKYNYTHFFFRK parameter_measured="amyloid nucleation score" assay_value=0.114
substance=NVPIPRAFRDNRTL parameter_measured="amyloid nucleation score" assay_value=0.577
substance=AGSNSFIFFLVRFFVRALGR parameter_measured="amyloid nucleation score" assay_value=-0.67
substance=LIGRIGDFLA parameter_measured="amyloid nucleation score" assay_value=0.097
substance=RLIHRPVWV parameter_measured="amyloid nucleation score" assay_value=0.526
substance=YSVLCIMRTLHAEIWFTGGI parameter_measured="amyloid nucleation score" assay_value=-0.023
substance=SRLYVCFALSSLSISRNNYG parameter_measured="amyloid nucleation score" assay_value=3.11
substance=QVFKHGSPGHMLALCQRAV parameter_measured="amyloid nucleation score" assay_value=1.39
substance=LNTGCDANQILAVCSRGVGV parameter_measured="amyloid nucleation score" assay_value=0.793
substance=SNSLCETWSRWWKRMFTDTF parameter_measured="amyloid nucleation score" assay_value=0.179
substance=MVRYLGYYLPNWRSFHWHRL parameter_measured="amyloid nucleation score" assay_value=0.951
substance=THDAFF parameter_measured="amyloid nucleation score" assay_value=0.642
substance=RERVISVWGL parameter_measured="amyloid nucleation score" assay_value=-0.197
substance=GLWYHA parameter_measured="amyloid nucleation score" assay_value=0.025
substance=YNYSRYIRERFWFYT parameter_measured="amyloid nucleation score" assay_value=0.115
substance=GASGGVTASLLKTRITVTWV parameter_measured="amyloid nucleation score" assay_value=-0.271
substance=GLREMRNISAVFCFRLYICL parameter_measured="amyloid nucleation score" assay_value=1.58
substance=AVYMLSMCPFEYAYKRCVCG parameter_measured="amyloid nucleation score" assay_value=-1.16
substance=YKFKGSFVSIRQGAEVGYSA parameter_measured="amyloid nucleation score" assay_value=-0.361
substance=IWLSQYDHGNCVTYSQANYM parameter_measured="amyloid nucleation score" assay_value=0.412
substance=LSHTTVRIDMGAAWRSLYSM parameter_measured="amyloid nucleation score" assay_value=2.36
substance=FSHGFMITICHWEMTKETDW parameter_measured="amyloid nucleation score" assay_value=-0.476
substance=YSEWRSSHNRFMSRPLSTPR parameter_measured="amyloid nucleation score" assay_value=-0.992
substance=RRNVYFYVWYVSPNVMKYSN parameter_measured="amyloid nucleation score" assay_value=3.84
substance=GVLNVL parameter_measured="amyloid nucleation score" assay_value=-0.418
substance=KTCFHNNLPKIGLPHHLHNG parameter_measured="amyloid nucleation score" assay_value=-1.32
substance=RGRDHCYTTDWNGYRVMVPL parameter_measured="amyloid nucleation score" assay_value=0.58
substance=HRRSLRVGLSDIHLLAACAE parameter_measured="amyloid nucleation score" assay_value=-0.897
substance=ARAGWRSYYRGHLCSESANE parameter_measured="amyloid nucleation score" assay_value=0.273
substance=FLSSCSMFMGRPWFSCYRVR parameter_measured="amyloid nucleation score" assay_value=-1.02
substance=ITMFNLYQCSL parameter_measured="amyloid nucleation score" assay_value=5.78
substance=SGTRFLFEPSELINPYNHRC parameter_measured="amyloid nucleation score" assay_value=1.15
substance=HIGYCQSVSTFSR parameter_measured="amyloid nucleation score" assay_value=10.2
substance=GSCCVKCDIHI parameter_measured="amyloid nucleation score" assay_value=0.167
substance=VLGSKKWDDLGYLYCRLCTH parameter_measured="amyloid nucleation score" assay_value=0.64
substance=GDNVFFMLERALFVVRNRRV parameter_measured="amyloid nucleation score" assay_value=-0.386
substance=GSCFTVWMIGPGRRTLLQVL parameter_measured="amyloid nucleation score" assay_value=-0.079
substance=HNFWLCAVSYQDRVMFLSVF parameter_measured="amyloid nucleation score" assay_value=0.497
substance=VCNIPNFCQKQCLSFTTIRY parameter_measured="amyloid nucleation score" assay_value=2
substance=AKLYMCSCINCTASHEITYF parameter_measured="amyloid nucleation score" assay_value=8.42
substance=TESPRCRVPGVELPD parameter_measured="amyloid nucleation score" assay_value=-0.136
substance=LDHYDVSGNRMVL parameter_measured="amyloid nucleation score" assay_value=-0.487
substance=FLHVPVLFSFTHCFMG parameter_measured="amyloid nucleation score" assay_value=3.03
substance=VPRYGTLEGANESDLFGW parameter_measured="amyloid nucleation score" assay_value=0.282
substance=HYEVYAARVPNHHAKDIFWV parameter_measured="amyloid nucleation score" assay_value=-0.024
substance=GWNRTTSHWIRVFYCAVLVC parameter_measured="amyloid nucleation score" assay_value=-0.346
substance=IPNGNVSSSLSVGIMPVAFR parameter_measured="amyloid nucleation score" assay_value=4.36
substance=VLRWLRKRSFSI parameter_measured="amyloid nucleation score" assay_value=-0.076
substance=PAMLPLTAMFLLHGRYVLTP parameter_measured="amyloid nucleation score" assay_value=-0.384
substance=GLPVGQGGELDY parameter_measured="amyloid nucleation score" assay_value=2.32
substance=GIYCLYFDILEVFLYTTTLS parameter_measured="amyloid nucleation score" assay_value=0.27
substance=NFFQWPSVETWTASIN parameter_measured="amyloid nucleation score" assay_value=-0.144
substance=AHFHPLEVRFTIHDFLADNL parameter_measured="amyloid nucleation score" assay_value=-0.215
substance=TATDPLLSYGAHL parameter_measured="amyloid nucleation score" assay_value=-0.354
substance=WRMRYKC parameter_measured="amyloid nucleation score" assay_value=-0.338
substance=MKRVWSYIAGKNARNLKGRL parameter_measured="amyloid nucleation score" assay_value=0.174
substance=FIRGDANSLLHYLSDCVRE parameter_measured="amyloid nucleation score" assay_value=1.37
